Read-out record for Amine oxidase [flavin-containing] B (Homo sapiens): pIC50
Would you please state pIC50, meaning minus log10 of the concentration in mol/L, as a bare number?

As a guide, the following entries are already answered.
{"columns": ["SMILES TEXT", "OBSERVED"],
 "data": [
  ["C#CCn1ccc2cc(NC(=O)N(CC)CC)ccc21", 4.54],
  ["C#CCn1ccc2ccc(OC(=O)N(CC)CC)cc21", 5.74],
  ["C#CCn1ccc2cc(OC(=O)N(CC)CC)ccc21", 4.78]
]}

[ask] Request: pIC50, test system Amine oxidase [flavin-containing] B (Homo sapiens), entry C#CCn1ccc2ccc(NC(=O)N(CC)CC)cc21
[reply] 5.58

The origin of these recorded values is ChEMBL document CHEMBL4257479.
